subject-of-test: human CD3 on cells (human PBMC; Jurkat TCR/CD3 NFAT reporter cells) (human, UniProt P07766 23-207; P04234 22-171; P09693 23-182)
Sequence (P07766 23-207, chain 1 of 3): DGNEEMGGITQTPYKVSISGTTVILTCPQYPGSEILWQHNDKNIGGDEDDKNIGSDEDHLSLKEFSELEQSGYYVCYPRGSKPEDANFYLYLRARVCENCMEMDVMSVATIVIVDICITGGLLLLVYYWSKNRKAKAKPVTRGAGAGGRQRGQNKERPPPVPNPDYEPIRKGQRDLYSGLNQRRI
Sequence (P04234 22-171, chain 2 of 3): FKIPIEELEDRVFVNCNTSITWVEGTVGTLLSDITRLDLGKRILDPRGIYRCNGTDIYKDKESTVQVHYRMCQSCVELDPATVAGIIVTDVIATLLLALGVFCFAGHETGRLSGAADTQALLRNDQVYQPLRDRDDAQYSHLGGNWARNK
Sequence (P09693 23-182, chain 3 of 3): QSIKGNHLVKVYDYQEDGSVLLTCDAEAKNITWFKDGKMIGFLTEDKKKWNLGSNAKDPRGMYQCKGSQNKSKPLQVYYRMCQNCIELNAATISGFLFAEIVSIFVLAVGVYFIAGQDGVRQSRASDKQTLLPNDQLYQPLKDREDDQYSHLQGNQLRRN
test-summary: cell-based or functional assay; further: unit not given here
Listed here: items and their measured Emax.
Answer using only a numeral; do not append any unit.

| binder | Emax |
| --- | --- |
| Hu155A9B1-2 (antibody, V domains shown, humanized mAb) VH: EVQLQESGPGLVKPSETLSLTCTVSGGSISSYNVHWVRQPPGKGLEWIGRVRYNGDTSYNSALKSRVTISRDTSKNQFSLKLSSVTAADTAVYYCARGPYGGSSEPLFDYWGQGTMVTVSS VL: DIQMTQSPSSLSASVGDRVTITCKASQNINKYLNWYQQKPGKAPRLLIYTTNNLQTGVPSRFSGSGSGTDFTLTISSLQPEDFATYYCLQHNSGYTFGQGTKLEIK | 656 |
| Hu155A9B1-8 (antibody, V domains shown, humanized mAb; also called 155z8) VH: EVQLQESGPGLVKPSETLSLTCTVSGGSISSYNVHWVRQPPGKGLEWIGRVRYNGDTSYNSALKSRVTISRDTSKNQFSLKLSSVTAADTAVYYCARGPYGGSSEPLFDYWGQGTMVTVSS VL: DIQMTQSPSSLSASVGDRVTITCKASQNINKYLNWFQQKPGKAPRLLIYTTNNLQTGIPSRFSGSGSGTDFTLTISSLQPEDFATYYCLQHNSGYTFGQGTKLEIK | 1330 |
| Hu153A6B1-7 (antibody, V domains shown, humanized mAb) VH: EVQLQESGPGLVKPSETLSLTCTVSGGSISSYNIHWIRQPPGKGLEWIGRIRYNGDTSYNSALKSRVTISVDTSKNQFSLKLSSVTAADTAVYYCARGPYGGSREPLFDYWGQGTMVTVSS VL: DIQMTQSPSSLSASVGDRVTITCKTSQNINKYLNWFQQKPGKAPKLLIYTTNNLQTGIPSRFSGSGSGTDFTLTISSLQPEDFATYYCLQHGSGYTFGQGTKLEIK | 1580 |

Query: I have this binder here, Hu155A9B1-16 (antibody, V domains shown, humanized mAb; also called 155z16) VH: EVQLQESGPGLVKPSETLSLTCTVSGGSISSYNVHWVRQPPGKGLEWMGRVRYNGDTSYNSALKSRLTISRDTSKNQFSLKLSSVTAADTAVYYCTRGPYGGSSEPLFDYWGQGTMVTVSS VL: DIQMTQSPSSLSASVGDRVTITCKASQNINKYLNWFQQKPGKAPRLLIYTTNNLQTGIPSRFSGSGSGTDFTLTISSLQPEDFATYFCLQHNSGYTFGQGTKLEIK , and I need its recorded Emax.
Response: 1240

Query: Report Emax for Hu155A9B1-1 (antibody, V domains shown, humanized mAb) VH: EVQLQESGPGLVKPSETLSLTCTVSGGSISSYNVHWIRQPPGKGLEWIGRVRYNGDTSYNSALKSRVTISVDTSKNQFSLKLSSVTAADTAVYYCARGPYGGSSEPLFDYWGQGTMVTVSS VL: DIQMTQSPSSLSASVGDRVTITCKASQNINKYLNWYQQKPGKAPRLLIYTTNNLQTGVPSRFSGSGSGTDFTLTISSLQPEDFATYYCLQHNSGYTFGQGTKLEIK please.
Response: 720

Query: Query (binder): Hu153A6B1-2 (antibody, V domains shown, humanized mAb) VH: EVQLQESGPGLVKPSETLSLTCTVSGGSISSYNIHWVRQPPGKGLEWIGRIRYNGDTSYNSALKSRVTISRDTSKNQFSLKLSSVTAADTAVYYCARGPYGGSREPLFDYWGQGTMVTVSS VL: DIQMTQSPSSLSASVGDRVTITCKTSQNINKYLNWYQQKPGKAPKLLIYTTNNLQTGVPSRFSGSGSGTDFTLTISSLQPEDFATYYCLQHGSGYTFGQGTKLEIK ; field requested: Emax
Response: 2500

Query: Give the measured Emax of Hu153A6B1-6 (antibody, V domains shown, humanized mAb) VH: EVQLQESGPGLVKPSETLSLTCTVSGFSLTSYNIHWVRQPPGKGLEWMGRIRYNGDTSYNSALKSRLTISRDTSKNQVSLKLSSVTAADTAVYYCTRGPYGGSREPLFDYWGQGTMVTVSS VL: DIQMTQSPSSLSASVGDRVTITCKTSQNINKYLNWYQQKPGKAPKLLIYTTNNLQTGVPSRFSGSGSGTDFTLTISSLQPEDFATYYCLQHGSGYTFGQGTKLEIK .
Response: 4210

Query: Looking for the measured Emax of Hu153A6B1-11 (antibody, V domains shown, humanized mAb) VH: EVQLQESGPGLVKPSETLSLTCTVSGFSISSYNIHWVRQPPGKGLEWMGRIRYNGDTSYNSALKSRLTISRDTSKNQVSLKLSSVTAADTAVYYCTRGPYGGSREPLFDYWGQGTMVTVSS VL: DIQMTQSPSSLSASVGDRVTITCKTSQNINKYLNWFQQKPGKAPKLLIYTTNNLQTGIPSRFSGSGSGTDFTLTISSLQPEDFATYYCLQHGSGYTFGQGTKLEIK , can you help?
Response: 4470

Query: Which Emax value is on record for Hu153A6B1-1 (antibody, V domains shown, humanized mAb) VH: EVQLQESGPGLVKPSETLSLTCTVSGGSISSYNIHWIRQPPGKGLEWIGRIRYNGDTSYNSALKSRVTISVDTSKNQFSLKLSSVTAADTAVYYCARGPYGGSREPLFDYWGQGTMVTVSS VL: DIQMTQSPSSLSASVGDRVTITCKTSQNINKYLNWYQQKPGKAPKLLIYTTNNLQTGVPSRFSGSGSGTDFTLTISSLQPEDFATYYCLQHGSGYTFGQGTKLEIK ?
Response: 1160

Query: Which Emax is reported for this binder? Hu153A6B1-18 (antibody, V domains shown, humanized mAb) VH: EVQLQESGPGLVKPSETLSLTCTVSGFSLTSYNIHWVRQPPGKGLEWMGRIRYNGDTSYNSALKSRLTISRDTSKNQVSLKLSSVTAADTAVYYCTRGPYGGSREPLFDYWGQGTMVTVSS VL: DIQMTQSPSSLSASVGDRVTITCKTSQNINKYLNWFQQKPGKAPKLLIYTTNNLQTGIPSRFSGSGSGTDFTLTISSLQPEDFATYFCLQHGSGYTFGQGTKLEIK
Response: 4900
